src = patent US8822517B2

// values below are reported inhibition at 1 µM
system-name: dopaminergic D3 receptor (Homo sapiens)
Sequence (P35462 whole entry): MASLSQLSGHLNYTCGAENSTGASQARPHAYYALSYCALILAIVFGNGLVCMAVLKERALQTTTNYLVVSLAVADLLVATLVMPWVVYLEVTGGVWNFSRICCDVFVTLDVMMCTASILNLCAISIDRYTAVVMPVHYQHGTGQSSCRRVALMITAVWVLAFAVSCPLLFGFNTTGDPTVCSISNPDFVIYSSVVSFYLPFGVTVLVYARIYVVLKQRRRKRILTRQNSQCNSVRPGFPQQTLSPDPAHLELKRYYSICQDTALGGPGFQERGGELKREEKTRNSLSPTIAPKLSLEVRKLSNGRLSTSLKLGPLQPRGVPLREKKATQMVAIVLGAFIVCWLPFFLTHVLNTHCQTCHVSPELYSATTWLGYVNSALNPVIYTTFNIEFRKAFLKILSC
assay-overview: Binding assay D3 (h), [3H]methyl-spiperone, CHO cells
Parameters: expressed in transfected cells; host or cells: CHO cells
assay-setup: read-out: D3 [%]
Return type: number; implicit unit %.

**Q:** Annotate the compound `O=c1[nH]c2ccc(S(=O)(=O)NCCCCN3CCN(c4noc5ccccc45)CC3)cc2o1` with its measured inhibition at 1 µM.
**A:** 99

**Q:** Annotate the compound `O=S(=O)(NCCCN1CCN(c2nsc3ccccc23)CC1)c1ccc(F)c(Cl)c1` with its measured inhibition at 1 µM.
**A:** 98

**Q:** Annotate the compound `O=S(=O)(NCCCN1CCN(c2nsc3ccccc23)CC1)c1ccc2ccccc2c1` with its measured inhibition at 1 µM.
**A:** 97

**Q:** Annotate the compound `COc1cccc(S(=O)(=O)NCCCN2CCN(c3nsc4ccccc34)CC2)c1` with its measured inhibition at 1 µM.
**A:** 82

**Q:** Annotate the compound `Cc1cccc(S(=O)(=O)NCCCCN2CCN(c3cccc4[nH]c(=O)[nH]c34)CC2)c1` with its measured inhibition at 1 µM.
**A:** 98
